Provenance of the data: patent US20070179086A1

# System: T1, recombinant human TR-2 with a C-terminal hexahistidine tag (TR-2-His) (human, UniProt O14763 56-207)
# T1 construct: also called soluble TR-2-His
# Experiment: SPR Biacore 2000; antibody captured on anti-human antibody chip, 226 nM TR-2-His injected, 25 C, 1:1 model;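 also: goat anti-human capture surface amine-coupled on CM5 chip, HBS-P running buffer with BSA, responses normalized to captured antibody level, kinetics from global 1:1 fitting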
Measured Property: Kd (nM)
Respond with the bare value in nM.

Prompt: # input binder: anti-TR-2 antibody O (antibody, V domains shown, also called Ab O) VH: QVQLQESGPGLVKPSQTLSLTCTVSGGSISSGDYFWSWIRQLPGKGLECIGHIHNSGTTYYNPSLKSRVTISVDTSKKQFSLRLSSVTAADTAVYYCARDRGGDYYYGMDVWGQGTTVTVSS VL: EIVLTQSPGTLSLSPGERATLSCRASQGISRSYLAWYQQKPGQAPSLLIYGASSRATGIPDRFSGSGSGTDFTLTISRLEPEDFAVYYCQQFGSSPWTFGQGTKVEIK ; wanted: its Kd
Response: 19

Prompt: # input binder: anti-TR-2 antibody E (antibody, V domains shown, also called Ab E) VH: QVQLVESGGGLVKPGGSLRLSCAASGFTFSDYYMNWIRQAPGKGLEWVSHISSSGSILDYADSVKGRFTISRDNAKNSLYLQMNSLRVEDTAVYYCARDGAAAGTDAFDLWGQGTMVTVSS VL: DIQMTQSPSSLSASVGDRVTITCRSSQSISNYINWYQQRPGKAPNLLIHDVSSFQSAVPSRFSRSGSGTVFTLTISSLQPEDFATYFCQQTYITPFTFGPGTKVDIK ; wanted: its Kd
Response: 2.1

Prompt: # input binder: anti-TR-2 antibody D (antibody, V domains shown, Human antibody from XenoMouse; also called Ab D) VH: QVQLQESGPGLVKPSQTLSLTCTVSGGSISSGGHYWSWIRQHPGKGLEWIGYIYYSGSAYYNPSLKSRVTISVDTSKNQFSLKLSSVTAADTAVYYCARDDSSGWGFDYWGQGILVTVSS VL: DIQMTQSPSSLSASVGDRVTITCRASQGLRNDLGWFQQKPGKAPKRLIYAASSLQRGVPSRFSGSGSGTEFTLTISSLQPEDFTTYFCLQHNSFPWTFGQGTKVEIK ; wanted: its Kd
Response: 4.5

Prompt: # input binder: anti-TR-2 antibody B (antibody, V domains shown, Human antibody from XenoMouse; also called Ab B) VH: QVQLQESGPGLVKPSQTLSLTCTVSGGSISSGGHYWSWIRQHPGKGLEWIGYIYYSGSTYYNPSLKSRVTISVDTSKNQFSLKLSSVTAADTAVYYCARDDSSGWGFDYWGQGILVTVSS VL: DIQMTQSPSSLSASVGDRVTITCRASQGLRNDLGWFQQKPGKVTKRLIYAASSLQRGVPSRFSGSGSGTEFTLTISSLQPEDFATYYCLQHYSFPWTFGQGTKVEIK ; wanted: its Kd
Response: 19
